- System Name: His-hMAGL (recombinant polyhistidine tagged human MAGL protein) (Homo sapiens, UniProt Q99685)
- Construct: made in house; host or cells: E. coli BL21(DE3)
- Sequence (Q99685 whole entry): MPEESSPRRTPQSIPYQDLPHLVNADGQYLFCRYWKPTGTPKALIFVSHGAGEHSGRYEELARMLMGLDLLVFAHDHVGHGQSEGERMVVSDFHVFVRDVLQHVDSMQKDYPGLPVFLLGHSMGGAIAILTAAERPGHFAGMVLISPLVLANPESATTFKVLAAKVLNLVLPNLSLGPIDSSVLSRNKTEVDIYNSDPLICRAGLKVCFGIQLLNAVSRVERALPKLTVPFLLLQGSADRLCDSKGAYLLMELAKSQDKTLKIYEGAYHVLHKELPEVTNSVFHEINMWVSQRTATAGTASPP
- Run Description: Measurement of MAGL inhibitory activity (arachidonic acid production from 2-arachidonylglycerol, RapidFire-mass spectrometry)
- Format: biochemical
- Assay Context: MAGL inhibitory rate, test compound 10 μM, 60 min preincubation, 2-arachidonylglycerol substrate
Test Readout: inhibition at 10 µM (%)

COC(=O)c1cccc(-c2ccc(CC3CCN(C(=O)N4CC5(CCC(=O)N5)C4)CC3)cc2)c1
101
O=C1NC2(CCN(C(=O)c3sc4c(F)c(F)cc(Cl)c4c3Cl)C2)CO1 (stereo not shown)
99
O=C1CCC2(CN(C(=O)c3ccc(-c4cc(C5CC5)ccc4F)cc3)C2)N1
99
O=C1CCC2(CN(C(=O)c3cc4cc(OCc5ccc(Cl)cc5Cl)ccc4s3)C2)N1
83
O=C1CCC2(CN(C(=O)N3CC(OCc4ccc(C(F)(F)F)cc4F)C3)C2)N1
98
CC1(c2cccc(-c3cc(Cl)c(C(=O)N4CC5(COC(=O)N5)C4)s3)c2)CC1
100
O=C1COCC2(CCN(C(=O)N3CCC(COc4ccc(F)cc4Cl)CC3)C2)N1 (stereo not shown)
99
O=C1CCC2(CN(C(=O)c3sc4cc(-c5ccccc5F)ccc4c3Cl)C2)N1
103
O=C1NC2(CO1)CN(C(=O)[C@H]1C[C@@H](OCc3ccc(Cl)c(Cl)c3)C1)C2
100
O=C1NC2(CO1)CN(C(=O)c1sc3cc(OC(F)(F)F)c(C(F)F)cc3c1Cl)C2
100
O=C1CCC2(CN(C(=O)N3CC(COc4ccc(C(F)(F)F)cc4F)C3)C2)N1
100
Cc1cc(CO[C@H]2C[C@H](C(=O)N3CC4(COC(=O)N4)C3)C2)ccc1Cl
100
O=C1CCC2(CN(C(=O)c3sc4cc(-c5ccc(C(F)F)cc5)ccc4c3Cl)C2)N1
94
COc1ccc(F)c(-c2ccc(C(=O)N3CC4(CCC(=O)N4)C3)cc2)c1F
85
O=C1CCC2(CN(C(=O)c3ccc(-c4ccccc4OC(F)(F)F)cc3)C2)N1
95
O=C1CCC2(CN(C(=O)c3ccc(-c4csc5ccccc45)cc3)C2)N1
100
O=C1CCC2(CN(C(=O)c3sc4c(C(F)(F)F)cccc4c3Cl)C2)N1
99
O=C1CCC2(CN(C(=O)c3sc4cc(-c5cccc(F)c5F)ccc4c3Cl)C2)N1
99
CC(C)c1ccc(-c2ccc3c(Cl)c(C(=O)N4CC5(CCC(=O)N5)C4)sc3c2)cc1
94
O=C1CCC2(CN(C(=O)N3CCC(COc4ccc5c(c4)CCCC5)CC3)C2)N1
101
O=C1CCC2(CN(C(=O)c3ccc(-c4cccc(Cl)c4)cc3)C2)N1
97
O=C1COCC2(CN(C(=O)N3CCC(COc4ccc(F)cc4Cl)CC3)C2)N1
100
Cc1cccc(-c2ccc(C(=O)N3CC4(CCC(=O)N4)C3)cc2)c1C
96
O=C1CCC2(CN(C(=O)c3ccc(-c4cccc(C5(C(F)(F)F)CC5)c4)cc3)C2)N1
99
O=C1CCC2(CN(C(=O)c3sc4cc(-c5ccc(F)c(Cl)c5)ccc4c3Cl)C2)N1
99
Cc1cc(F)ccc1-c1ccc2c(Cl)c(C(=O)N3CC4(CCC(=O)N4)C3)sc2c1
99
O=C1NC2(CO1)CN(C(=O)c1sc3cc(Br)ccc3c1Cl)C2
100
O=C1NC2(CCN(C(=O)c3sc4cc(C(F)(F)F)ccc4c3Cl)C2)CO1 (stereo not shown)
100
Cc1c(C(=O)N2CC3(CCC(=O)N3)C2)sc2ccccc12
92
O=C1CCC2(CN(C(=O)c3sc4cc(-c5ccc(F)cc5Cl)ccc4c3Cl)C2)N1
100
Cc1c(C(=O)N2CC3(COC(=O)N3)C2)sc2c(F)c(OC(F)(F)F)ccc12
100
COc1c(F)cc(-c2ccc(C(=O)N3CC4(CCC(=O)N4)C3)cc2)cc1F
94
CC(Oc1ccc(F)cc1Cl)C1CN(C(=O)N2CC3(CCC(=O)N3)C2)C1 (stereo not shown)
98
Cc1cc(F)cc(-c2ccc3c(Cl)c(C(=O)N4CC5(CCC(=O)N5)C4)sc3c2)c1
99
